These measurements were taken from ChEMBL document CHEMBL4513216.

Give measured INHIBITION for each item. Keep answers brief.
- Test system: Plasmodium falciparum
- EXPERIMENTAL_PROTOCOL: Screen against P. falciparum Asexual Blood Stage (ABS), at 5uM
- Assay type: functional, Dd2
- EXPERIMENTAL_SETUP: tested at 5 uM
Hit rate of the full screen: of about 65,000 compounds, about 2,100 (3.2%) showed an effect of 50% or more. The median lay at about -52%. This excerpt belongs to a sample that is enriched for strong results.
Numbers only here, please. The scale is %.

// INHIBITION lookup, key: CC(C)NC(=O)C1CCC2(CCN(Cc3cnn(C)c3)CC2)CO1 (configuration not stated)
-63.9

What value of INHIBITION has been recorded for this entry: CC1(C)CN=C(N2CCN(CCCN3CCOCC3)CC2)S1
-67.2

Can you share its INHIBITION? I mean this molecule: c1ncn(CC2CCCN2Cc2cn3ccsc3n2)n1 (configuration not stated)
-64.9

// lookup INHIBITION for Cc1ccc(CNCc2ccc(N3CCC(CO)CC3)nc2)c(C)c1
-47.4

Tell me the measured INHIBITION of CN1C(=O)CC(c2ccccc2)C12CCN(CC1CCOCC1)CC2 (configuration not stated) , please.
36.1

Look up INHIBITION for this molecule: c1ncn(CC2CCCCN2Cc2cn3ccsc3n2)n1 (configuration not stated)
61.4

Quick one: INHIBITION of CN1C(=O)CC(c2ccccc2)C12CCN(CC1CC1)CC2 (configuration not stated) ?
16.7

Recorded INHIBITION of COc1ccc(C2=CCN(C(=O)CN(CC(N)=O)C(C)C)CC2)cc1 , please.
-68.8

Find the recorded INHIBITION belonging to COc1ccccc1CN1CCCC(Cc2nccnc2N)C1 (configuration not stated) and report it.
62.1

Sample N#Cc1cn(C2CC2)c(=O)n(CC(O)c2ccccc2C(F)(F)F)c1=O (configuration not stated) — what was its INHIBITION?
51

Quick check: INHIBITION of Cc1cc(CN2CCCCC2Cn2cncn2)no1 (configuration not stated) ?
57.3

Fill in: INHIBITION of CCCC1(CNCc2ncc[nH]2)CCC1 is ___
26.4

Looking for the measured INHIBITION of Nc1nccnc1CC1CCCN(Cc2cccc3[nH]ccc23)C1 (configuration not stated) , can you help?
19.4

Give its INHIBITION value. Item: Cc1cc(C)c(CN2CCCC23Cc2ccccc2CNC3=O)c(C)c1 (configuration not stated)
8.96

INHIBITION lookup needed for c1ccc(CC2(CNCc3ncc[nH]3)CCC2)cc1 , thanks.
45.2

Would you kindly share the measured INHIBITION for Cc1cc(-c2nn(C)c(Cl)c2CN2CCOCC(O)C2)no1 (configuration not stated) ?
-22.3

Param item = Cc1cccc(C(=O)N2CCO[C@H]3[C@H](OCCN(C)C)CC[C@@H]32)n1 ; retrieve measured INHIBITION.
-57.1
